Parameter viability, T/C: see the listing below.
# Tested on: 931267-113-T-J1-PDC KRAS spheroid with HUVEC/MSC, viability;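 also: compound exposure lasted 7 days before the readout; 100% = DMSO vehicle control viability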
# experiment description: Anticancer human tumor 931267-113-T-J1-PDC patient-derived colon adenocarcinoma cell line growth inhibition [KRAS2]
# protocol conditions: second compound 0.1 µM; first compound 0.000316 µM; active compounds read low
Quick note: give the figure in %, leave out the unit.

Example results:
INSERT INTO measurements (compound, tested_system, metric, measured_result) VALUES
  ('CC(=O)Nc1cccc(-n2c(=O)n(C3CC3)c(=O)c3c(Nc4ccc(I)cc4F)n(C)c(=O)c(C)c32)c1 + CC1OCC2(CCN(c3cnc(Sc4ccnc(N)c4Cl)c(N)n3)CC2)C1N', '931267-113-T-J1-PDC KRAS spheroid with HUVEC/MSC, viability', 'viability, T/C', 81.6),
  ('Cn1ncnc1[C@H]1c2n[nH]c(=O)c3cc(F)cc(c23)N[C@@H]1c1ccc(F)cc1 + COc1cc2nc(C)nc(NC(C)c3cc(N)cc(C(F)(F)F)c3)c2cc1OC1CCOC1', '931267-113-T-J1-PDC KRAS spheroid with HUVEC/MSC, viability', 'viability, T/C', 103),
  ('Cn1ncnc1[C@H]1c2n[nH]c(=O)c3cc(F)cc(c23)N[C@@H]1c1ccc(F)cc1 + CC1OCC2(CCN(c3cnc(Sc4ccnc(N)c4Cl)c(N)n3)CC2)C1N', '931267-113-T-J1-PDC KRAS spheroid with HUVEC/MSC, viability', 'viability, T/C', 93.9);

Consider the compound shown here: CN(C)C/C=C/C(=O)Nc1cc2c(Nc3ccc(F)c(Cl)c3)ncnc2cc1O[C@H]1CCOC1 + C=CC(=O)N1CCN(c2nc(=O)n(-c3c(C)ccnc3C(C)C)c3nc(-c4c(O)cccc4F)c(F)cc23)C(C)C1 What is its recorded viability, T/C?
103

Cited source: PubChem BioAssay AID1963863
